Attribution: the supplement of paper PMC12325586

tested on: MIA PaCa-2; details: OFD1 knockdown: yes (Tet-on shOFD1, 100 ng/mL doxycycline)
Endpoint: IC50 cell viability (µM)

CCN(CC)CCNC(=O)c1c(C)[nH]c(/C=C2\C(=O)Nc3ccc(F)cc32)c1C    2.98

(a) O=C(Nc1c(Cl)cncc1Cl)c1ccc(OC(F)F)c(OCC2CC2)c1
(b) COc1cc([C@@H]2c3cc4c(cc3[C@@H](O[C@@H]3O[C@@H]5CO[C@@H](c6cccs6)O[C@H]5[C@H](O)[C@H]3O)[C@H]3COC(=O)[C@H]23)OCO4)cc(OC)c1O
(c) Nc1nc(F)nc2c1ncn2[C@@H]1O[C@H](CO)[C@@H](O)[C@@H]1O
(d) C[C@]12C=CC(=O)N[C@@H]1CC[C@@H]1[C@@H]2CC[C@]2(C)[C@@H](C(=O)Nc3cc(C(F)(F)F)ccc3C(F)(F)F)CC[C@@H]12
Rank entries according to their IC50 cell viability, from the largest number down. Please list the labels in the order you were asked to rank them.
c, a, d, b

(I) COc1cc2nc(N3CCN(C(=O)C4COc5ccccc5O4)CC3)nc(N)c2cc1OC (stereo not drawn)
(II) CC/C(=C(\c1ccccc1)c1ccc(OCCN(C)C)cc1)c1ccccc1
(III) O=C(/C=C/c1cccc(S(=O)(=O)Nc2ccccc2)c1)NO
Sort low-to-high on IC50 cell viability, please. Please list the labels in the order you were asked to rank them.
III, I, II

* * *

system: MIA PaCa-2; conditions: OFD1 knockdown: yes (Tet-on shOFD1, 100 ng/mL doxycycline)
Endpoint: IC50 cell viability (µM)

C[C@]12CC[C@@H]3c4ccc(O)cc4C[C@@H](CCCCCCCCC[S+]([O-])CCCC(F)(F)C(F)(F)F)[C@H]3[C@@H]1CC[C@@H]2O (some centres not stated)    24.5

(A) C[C@@H]1CCN(C(=O)CC#N)C[C@@H]1N(C)c1ncnc2[nH]ccc12
(B) CNC(=O)c1cc(Oc2ccc(NC(=O)Nc3ccc(Cl)c(C(F)(F)F)c3)c(F)c2)ccn1
Decide: A or B , by lowest recorded IC50 cell viability. I would appreciate it if you answered with the label of your choice.
B

(1) Cn1cnc2c(F)c(Nc3ccc(Br)cc3Cl)c(C(=O)NOCCO)cc21
(2) CC[C@]1(O)C[C@H]2CN(CCc3c([nH]c4ccccc34)[C@@](C(=O)OC)(c3cc4c(cc3OC)N(C=O)[C@H]3[C@@](O)(C(=O)OC)[C@H](OC(C)=O)[C@]5(CC)C=CCN6CC[C@]43[C@@H]65)C2)C1
Which item exceeds the other in IC50 cell viability, 1 or 2 ? I would appreciate it if you answered with the label of your choice.
2
(2: 21.3 µM, 1: 1.44 µM)

(A) CC(=O)O[C@]1(C(C)=O)CC[C@H]2[C@@H]3C[C@H](C)C4=CC(=O)CC[C@]4(C)[C@H]3CC[C@@]21C
(B) Cc1ccc(NC(=O)c2ccc(CN3CCN(C)CC3)cc2)cc1Nc1nccc(-c2cccnc2)n1 [S1026]
Decide: A or B , by lowest recorded IC50 cell viability. I would appreciate it if you answered with the label of your choice.
A
(A: 8.9 µM, B: 14.8 µM)

* * *

system: MIA PaCa-2; conditions: OFD1 knockdown: no (no doxycycline)
Endpoint: IC50 cell viability (µM)

Examples with their reported IC50 cell viability follow.
NC(=O)C1CCCc2c1[nH]c1ccc(Cl)cc21 (centres undefined)    70.7
O=C(/C=C/c1cccc(S(=O)(=O)Nc2ccccc2)c1)NO    3.67

(1) COc1cc([C@@H]2c3cc4c(cc3[C@@H](O[C@@H]3O[C@@H]5CO[C@@H](c6cccs6)O[C@H]5[C@H](O)[C@H]3O)[C@H]3COC(=O)[C@H]23)OCO4)cc(OC)c1O
(2) O=NN(CCCl)C(=O)NC1CCCCC1
Decide: 1 or 2 , by lowest recorded IC50 cell viability. I would appreciate it if you answered with the label of your choice.
1

* * *

tested on: MIA PaCa-2; settings: OFD1 knockdown: no (no doxycycline)
Endpoint: IC50 cell viability (µM)

(P) Cc1ccc(O)c([C@H](CCN(C(C)C)C(C)C)c2ccccc2)c1
(Q) OC(CNCC(O)C1CCc2cc(F)ccc2O1)C1CCc2cc(F)ccc2O1 (stereo not drawn)
Which item exceeds the other in IC50 cell viability, P or Q ? I would appreciate it if you answered with the label of your choice.
Q
(Q: 28.8 µM, P: 10.2 µM)

(1) Cc1nnc(C(C)C)n1[C@H]1C[C@H]2CC[C@@H](C1)N2CC[C@H](NC(=O)C1CCC(F)(F)CC1)c1ccccc1
(2) COc1nc(C)cnc1NS(=O)(=O)c1cccnc1-c1ccc(-c2nnco2)cc1
Which item exceeds the other in IC50 cell viability, 1 or 2 ? I would appreciate it if you answered with the label of your choice.
2

(a) O=C(O)c1ccc2c(c1)nc(Nc1cccc(Cl)c1)c1ccncc12
(b) N#CC[C@H](C1CCCC1)n1cc(-c2ncnc3[nH]ccc23)cn1 [S2902]
(c) COc1c(C)c2c(c(O)c1C/C=C(\C)CCC(=O)OCCN1CCOCC1)C(=O)OC2
Rank entries according to their IC50 cell viability, from the largest number down. Please list the labels in the order you were asked to rank them.
b, c, a

* * *

system: MIA PaCa-2; settings: OFD1 knockdown: no (no doxycycline)
Endpoint: IC50 cell viability (µM)

Examples with their reported IC50 cell viability follow.
CC(=O)O[C@@]12CO[C@@H]1C[C@H](O)[C@@]1(C)C(=O)[C@H](O)C3=C(C)[C@@H](OC(=O)[C@H](O)[C@@H](NC(=O)OC(C)(C)C)c4ccccc4)C[C@@](O)([C@@H](OC(=O)c4ccccc4)[C@H]21)C3(C)C [S1148]    0.39
CCCS(=O)(=O)Nc1ccc(F)c(C(=O)c2c[nH]c3ncc(-c4ccc(Cl)cc4)cc23)c1F [S1267]    17
CC(C)(C)Cn1c(N)nc2ccc(-c3[nH]c(C(C)(C)C)nc3-c3ccc(F)cc3)nc21 [S1494]    4.04
C[C@H]1C[C@H]2[C@@H]3CCC4=CC(=O)C=C[C@]4(C)[C@H]3C(=O)C[C@]2(C)[C@@]1(O)C(=O)CO [S1689]    17.6
COC(=O)c1ccc2c(C(=Nc3ccc(N(C)C(=O)CN4CCN(C)CC4)cc3)c3ccccc3)c(O)[nH]c2c1 [S1010]    4.96
CO[C@H]1C[C@@H]2CC[C@@H](C)[C@@](O)(O2)C(=O)C(=O)N2CCCC[C@H]2C(=O)O[C@H]([C@H](C)C[C@@H]2CC[C@@H](OCCO)[C@H](OC)C2)CC(=O)[C@H](C)/C=C(\C)[C@@H](O)[C@@H](OC)C(=O)[C@H](C)C[C@H](C)/C=C/C=C/C=C/1C [S1120]    2.19
NC(=O)c1ccc(I)c([N+](=O)[O-])c1 [S1087]    69.1
Cc1ccc(Nc2nccc(N(C)c3ccc4c(C)n(C)nc4c3)n2)cc1S(N)(=O)=O [S3012]    14

(I) Clc1ccc(Nc2nnc(Cc3ccncc3)c3ccccc23)cc1 [S1101]
(II) COc1cc2ncnc(Nc3ccc(F)c(Cl)c3)c2cc1OCCCN1CCOCC1 [S1025]
(III) COc1cc2c(Oc3ccc4[nH]c(C)cc4c3F)ncnc2cc1OCCCN1CCCC1 [S1017]
(IV) C[C@]12CCC(=O)C=C1CC[C@@H]1[C@@H]2[C@@H](O)C[C@@]2(C)[C@H]1CC[C@]2(O)C(=O)CO [S1696]
(V) Nc1ccccc1NC(=O)c1ccc(CNc2nccc(-c3cccnc3)n2)cc1 [S1122]
Sort low-to-high on IC50 cell viability, please. Please list the labels in the order you were asked to rank them.
V, II, III, I, IV
(V: 1.29 µM, II: 2.22 µM, III: 13.1 µM, I: 30.8 µM, IV: 57.9 µM)

* * *

tested on: MIA PaCa-2; settings: OFD1 knockdown: yes (Tet-on shOFD1, 100 ng/mL doxycycline)
Endpoint: IC50 cell viability (µM)

Examples with their reported IC50 cell viability follow.
CC1=C(/C=C/C(C)=C/C=C/C(C)=C\C(=O)O)C(C)(C)CCC1    11.5
O=C(O)C(=O)O.[NH-][C@@H]1CCCC[C@H]1[NH-].[Pt+2]    57.3
O=C(O)c1ccc2c(c1)nc(Nc1cccc(Cl)c1)c1ccncc12    3.69
O=C1[C@H](CC[C@H](O)c2ccc(F)cc2)[C@@H](c2ccc(O)cc2)N1c1ccc(F)cc1    3.62

(I) CCc1c2c(nc3ccc(OC(=O)N4CCC(N5CCCCC5)CC4)cc13)-c1cc3c(c(=O)n1C2)COC(=O)[C@]3(O)CC [S2217]
(II) Nc1nc(Cl)nc2c1ncn2[C@@H]1O[C@H](CO)[C@@H](O)[C@@H]1F
Decide: I or II , by lowest recorded IC50 cell viability. I would appreciate it if you answered with the label of your choice.
II

(a) CC[C@@]1(O)C(=O)OCc2c1cc1n(c2=O)Cc2cc3c(CN(C)C)c(O)ccc3nc2-1
(b) Nc1ccccc1NC(=O)c1ccc(CNC(=O)OCc2cccnc2)cc1
Which item exceeds the other in IC50 cell viability, a or b ? I would appreciate it if you answered with the label of your choice.
a

(I) CN(C)C/C=C/C(=O)Nc1cc2c(Nc3ccc(F)c(Cl)c3)ncnc2cc1O[C@H]1CCOC1
(II) CO[C@H]1C[C@@H]2CC[C@@H](C)[C@@](O)(O2)C(=O)C(=O)N2CCCC[C@H]2C(=O)O[C@H]([C@H](C)C[C@@H]2CC[C@@H](OCCO)[C@H](OC)C2)CC(=O)[C@H](C)/C=C(\C)[C@@H](O)[C@@H](OC)C(=O)[C@H](C)C[C@H](C)/C=C/C=C/C=C/1C
(III) O=C1CCC(N2C(=O)c3ccccc3C2=O)C(=O)N1 (configuration not stated)
(IV) C[C@]1(O)C[C@@H](c2nc(-c3ccc4ccc(-c5ccccc5)nc4c3)c3c(N)nccn32)C1
Sort low-to-high on IC50 cell viability, please. Please list the labels in the order you were asked to rank them.
II, III, IV, I

(P) Nc1ccc(C(=O)O)c(O)c1
(Q) CO[C@H]1C[C@@H]2CC[C@@H](C)[C@@](O)(O2)C(=O)C(=O)N2CCCC[C@H]2C(=O)O[C@H]([C@H](C)C[C@@H]2CC[C@@H](O)[C@H](OC)C2)CC(=O)[C@H](C)/C=C(\C)[C@@H](O)[C@@H](OC)C(=O)[C@H](C)C[C@H](C)/C=C/C=C/C=C/1C
Decide: P or Q , by lowest recorded IC50 cell viability. I would appreciate it if you answered with the label of your choice.
Q
(Q: 0.54 µM, P: 7.73 µM)
